Would you kindly list IC50 for each of these compounds?
Biological target: Vps34 (Homo sapiens)
Sequence (Q8NEB9 whole entry, species assumed): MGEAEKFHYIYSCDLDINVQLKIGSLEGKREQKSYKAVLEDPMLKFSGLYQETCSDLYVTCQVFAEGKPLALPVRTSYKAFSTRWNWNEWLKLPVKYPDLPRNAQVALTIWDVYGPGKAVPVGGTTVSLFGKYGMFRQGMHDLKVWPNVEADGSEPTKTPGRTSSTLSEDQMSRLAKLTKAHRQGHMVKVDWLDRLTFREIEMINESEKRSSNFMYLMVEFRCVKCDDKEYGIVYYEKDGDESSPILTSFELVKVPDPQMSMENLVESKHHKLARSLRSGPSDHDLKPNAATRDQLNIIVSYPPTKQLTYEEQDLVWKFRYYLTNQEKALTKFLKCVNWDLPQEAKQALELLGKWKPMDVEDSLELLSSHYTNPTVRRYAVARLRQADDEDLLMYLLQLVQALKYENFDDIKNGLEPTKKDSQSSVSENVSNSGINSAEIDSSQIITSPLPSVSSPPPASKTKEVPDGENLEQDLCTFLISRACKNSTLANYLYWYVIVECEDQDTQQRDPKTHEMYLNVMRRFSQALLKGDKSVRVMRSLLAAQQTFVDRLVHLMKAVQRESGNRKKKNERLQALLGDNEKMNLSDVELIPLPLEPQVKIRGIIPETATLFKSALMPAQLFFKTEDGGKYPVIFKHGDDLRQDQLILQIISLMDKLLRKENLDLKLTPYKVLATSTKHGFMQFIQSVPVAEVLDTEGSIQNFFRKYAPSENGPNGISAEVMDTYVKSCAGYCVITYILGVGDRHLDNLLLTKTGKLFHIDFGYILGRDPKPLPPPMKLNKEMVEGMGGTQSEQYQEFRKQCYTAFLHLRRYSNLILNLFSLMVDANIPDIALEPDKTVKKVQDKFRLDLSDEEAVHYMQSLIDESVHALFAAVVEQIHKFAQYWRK
Assay: Kinase Glo Luminescent Kinase Assay (Kglo), assay C
Type: biochemical
Conditions: read-out: Assay C VPS34 IC50

Before answering, review these 4 worked examples.
>>> assay_value("Cc1ccc(S(=O)(=O)NCC(F)F)cc1-c1cnc(N)c(-n2cncn2)n1")
"> 10 µM"
>>> assay_value("Cc1cc(-c2nc(-c3cc(S(=O)(=O)N[C@H]4CC[C@H](N)CC4)ccc3C)cnc2N)ccn1")
"> 9.1 µM"
>>> assay_value("Cc1ccc(S(=O)(=O)NCCC(C)(C)O)cc1-c1cnc(N)c(-c2c[nH]nc2C)n1")
"> 9.1 µM"
>>> assay_value("Cc1ccc(S(=O)(=O)NCC(C)(C)CO)cc1-c1cnc(N)c(-c2nc(C3CC3)no2)n1")
"> 9.1 µM"

Continue with the compound presented below.
Please give the measured IC50 for this compound: Cc1ccc(S(=O)(=O)N[C@@H](C)CO)cc1-c1cnc(N)c(-n2cncn2)n1
> 10 µM

* * *

Target: PI 3-kinase alpha (Homo sapiens, UniProt P42336)
Sequence (P42336 whole entry): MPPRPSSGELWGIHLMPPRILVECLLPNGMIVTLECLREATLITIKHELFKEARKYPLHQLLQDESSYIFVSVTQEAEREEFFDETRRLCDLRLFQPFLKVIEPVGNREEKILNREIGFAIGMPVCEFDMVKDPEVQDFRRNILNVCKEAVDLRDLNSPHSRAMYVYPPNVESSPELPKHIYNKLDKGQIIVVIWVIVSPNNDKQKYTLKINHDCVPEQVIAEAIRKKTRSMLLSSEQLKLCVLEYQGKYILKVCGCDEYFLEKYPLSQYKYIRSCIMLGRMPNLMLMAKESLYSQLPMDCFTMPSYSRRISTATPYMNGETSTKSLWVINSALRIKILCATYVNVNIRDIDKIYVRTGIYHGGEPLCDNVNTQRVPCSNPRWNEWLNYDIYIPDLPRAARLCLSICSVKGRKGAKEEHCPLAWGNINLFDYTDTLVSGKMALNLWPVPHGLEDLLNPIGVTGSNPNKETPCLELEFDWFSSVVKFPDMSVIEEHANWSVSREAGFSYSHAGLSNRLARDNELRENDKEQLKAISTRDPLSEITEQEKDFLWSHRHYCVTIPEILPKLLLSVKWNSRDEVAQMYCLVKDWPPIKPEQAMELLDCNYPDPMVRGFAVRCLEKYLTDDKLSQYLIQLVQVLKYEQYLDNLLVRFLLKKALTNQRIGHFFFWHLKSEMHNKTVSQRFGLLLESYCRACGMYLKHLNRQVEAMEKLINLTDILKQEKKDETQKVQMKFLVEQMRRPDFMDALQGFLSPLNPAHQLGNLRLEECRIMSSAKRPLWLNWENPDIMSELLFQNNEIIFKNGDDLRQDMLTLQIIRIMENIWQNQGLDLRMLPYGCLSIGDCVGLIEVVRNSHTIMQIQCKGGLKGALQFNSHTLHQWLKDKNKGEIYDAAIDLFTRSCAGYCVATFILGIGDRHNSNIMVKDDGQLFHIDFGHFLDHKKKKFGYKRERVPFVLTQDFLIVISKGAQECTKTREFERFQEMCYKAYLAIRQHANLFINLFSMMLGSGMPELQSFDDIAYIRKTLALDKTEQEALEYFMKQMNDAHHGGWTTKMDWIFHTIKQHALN
Assay: Kinase Glo Luminescent Kinase Assay (Kglo), assay A
Assay type: biochemical
Settings: read-out: Assay A PI3Kα IC50
property-measured: pIC50
One number for each entry, as −log10 of the molar value.

Before answering, review these 4 worked examples.
>>> assay_value("Cc1cc(-c2nc(-c3cc(S(=O)(=O)NCC4CCOC4)ccc3C)cnc2N)ccn1 (centres unmarked)")
6.16
>>> assay_value("COCCCNS(=O)(=O)c1ccc(C)c(-c2cnc(N)c(-c3ccnc(C)c3)n2)c1")
6.19
>>> assay_value("Cc1cc(-c2nc(-c3cc(S(=O)(=O)NCCN)ccc3C)cnc2N)ccn1")
6.15
>>> assay_value("Cc1ccc(S(=O)(=O)NCC(C)(C)O)cc1-c1cnc(N)c(-n2cnc(C3CC3)n2)n1")
6.36

Look at each molecule and report its pIC50.
1. Cc1ncc(-c2nc(-c3cc(S(=O)(=O)NCC4(C)COC4)ccc3C)cnc2N)s1
2. Cc1ccc(S(=O)(=O)NCC2(C)COC2)cc1-c1cnc(N)c(-c2cn(C)nc2C)n1
3. Cc1ccc(S(=O)(=O)N[C@H]2CC[C@H](O)CC2)cc1-c1cnc(N)c(-c2ccnc(F)c2)n1
4. Cc1ccc(S(=O)(=O)NCC(C)(C)O)cc1-c1cnc(N)c(-c2cnn(CC(F)(F)F)n2)n1
5. Cc1ccc(S(=O)(=O)NCCC(C)(C)O)cc1-c1cnc(N)c(-c2ccncc2)n1

7.70
6.66
6.96
6.92
6.77

Please give the measured pIC50 for this molecule: Cc1cc(-c2nc(-c3cc(S(=O)(=O)NC[C@H]4CCCO4)ccc3C)cnc2N)ccn1
5.92

* * *

Would you kindly list pIC50 for each of these molecules?
Biological target: PI 3-kinase delta (Homo sapiens, UniProt O00329)
Sequence (O00329 whole entry): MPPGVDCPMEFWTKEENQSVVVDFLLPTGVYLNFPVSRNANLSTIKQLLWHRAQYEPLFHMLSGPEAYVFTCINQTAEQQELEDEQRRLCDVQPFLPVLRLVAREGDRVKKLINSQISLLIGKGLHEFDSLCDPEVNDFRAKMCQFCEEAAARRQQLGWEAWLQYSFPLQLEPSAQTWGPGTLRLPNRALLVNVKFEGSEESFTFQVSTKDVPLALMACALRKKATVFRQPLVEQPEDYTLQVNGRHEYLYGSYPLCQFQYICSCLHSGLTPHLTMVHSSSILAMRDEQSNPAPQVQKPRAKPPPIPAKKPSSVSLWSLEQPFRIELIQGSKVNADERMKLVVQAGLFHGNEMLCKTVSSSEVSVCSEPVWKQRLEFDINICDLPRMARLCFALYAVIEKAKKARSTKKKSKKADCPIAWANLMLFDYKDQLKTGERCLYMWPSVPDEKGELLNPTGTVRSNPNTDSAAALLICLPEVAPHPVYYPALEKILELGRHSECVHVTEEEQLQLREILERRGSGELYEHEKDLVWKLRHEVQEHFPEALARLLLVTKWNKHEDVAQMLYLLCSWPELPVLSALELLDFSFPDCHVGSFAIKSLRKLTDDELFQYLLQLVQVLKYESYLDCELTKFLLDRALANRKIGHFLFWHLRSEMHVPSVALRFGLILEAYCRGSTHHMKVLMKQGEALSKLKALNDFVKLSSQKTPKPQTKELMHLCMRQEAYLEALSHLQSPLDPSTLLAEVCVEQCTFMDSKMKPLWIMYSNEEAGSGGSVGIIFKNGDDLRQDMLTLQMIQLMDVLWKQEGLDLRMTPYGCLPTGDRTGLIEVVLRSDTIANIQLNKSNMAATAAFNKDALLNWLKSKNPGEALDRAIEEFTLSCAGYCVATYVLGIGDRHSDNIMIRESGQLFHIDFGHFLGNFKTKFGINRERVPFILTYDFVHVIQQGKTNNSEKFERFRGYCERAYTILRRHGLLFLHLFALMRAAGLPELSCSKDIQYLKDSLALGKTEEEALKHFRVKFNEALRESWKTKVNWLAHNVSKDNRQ
Sequence (Q63787 whole entry partner): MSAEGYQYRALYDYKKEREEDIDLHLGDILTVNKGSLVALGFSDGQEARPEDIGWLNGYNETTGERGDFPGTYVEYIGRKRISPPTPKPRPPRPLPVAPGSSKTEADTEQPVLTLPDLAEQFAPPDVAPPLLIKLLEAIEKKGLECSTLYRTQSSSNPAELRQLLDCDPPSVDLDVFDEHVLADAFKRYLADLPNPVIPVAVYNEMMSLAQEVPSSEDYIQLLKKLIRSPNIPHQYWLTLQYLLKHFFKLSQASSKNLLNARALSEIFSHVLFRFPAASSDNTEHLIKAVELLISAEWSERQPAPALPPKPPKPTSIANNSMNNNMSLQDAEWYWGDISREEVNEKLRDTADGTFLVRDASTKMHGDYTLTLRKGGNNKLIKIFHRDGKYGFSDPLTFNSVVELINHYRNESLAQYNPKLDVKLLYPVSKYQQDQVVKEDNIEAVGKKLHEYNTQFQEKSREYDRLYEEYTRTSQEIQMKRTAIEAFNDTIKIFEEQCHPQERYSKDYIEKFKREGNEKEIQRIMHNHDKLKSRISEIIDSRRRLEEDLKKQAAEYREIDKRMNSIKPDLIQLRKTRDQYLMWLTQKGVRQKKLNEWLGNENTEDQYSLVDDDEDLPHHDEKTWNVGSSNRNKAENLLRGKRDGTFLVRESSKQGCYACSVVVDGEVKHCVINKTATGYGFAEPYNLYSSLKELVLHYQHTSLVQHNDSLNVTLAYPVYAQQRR
Assay: Cellular assay J1, p-Akt (S473) in Rat-1 cells, Surefire format
Type: cell-based
Conditions: non-asterisked data: version J1 (Surefire format), Rat-1 cells; read-out: Assay J PI3Kδ IC50
pIC50: −log10 of the molar value. Where a name gives a salt, the structure may show the parent alone.

Before answering, review these 2 worked examples.
>>> assay_value("Cc1ccc(S(=O)(=O)NOCCN(C)C)cc1-c1cnc(N)c(-n2cncn2)n1")
"< 5.00"
>>> assay_value("Cc1ccc(S(=O)(=O)NC[C@H]2CCCN2)cc1-c1cnc(N)c(-c2cn(C)nc2C)n1 [Example 106, hydrochloride]")
"< 5.00"

Continue with the molecule presented below.
Please give the measured pIC50 for this molecule: Cc1ccc(S(=O)(=O)NCC2CN(C)CCO2)cc1-c1cnc(N)c(-c2cn(C)nc2C)n1 (stereo not drawn)
< 5.00
